meta.source: paper PMC12040169

protocolDetails: in vitro
runParameters: human, hela cells, % viability
// assign yes if viability at 28.5 h, 10 µM falls strictly below 90%, else no (ties count as no)

compound: CN(CCN1CCCCC1)C(=O)c1cc2c([nH]1)CCCC2 [CBK281836]
className: yes

compound: N#CCCCN1CCN(c2nccnc2OCc2cccnc2)CC1 [CBK083144]
className: no

compound: CCOC(=O)c1sc(-c2ccccc2)nc1O [CBK074298]
className: no

compound: O=C(c1ccccc1)c1cccc(OCCOc2nccnc2N2CCNCC2)c1 [CBK014250G]
className: no

compound: O=S(=O)(Nc1ccc(N2CCNCC2)c2ccccc12)c1cc(Cl)sc1Cl [CBK003116C]
className: no

Is 90% strictly greater than the compound's reported viability at 28.5 h, 10 µM? compound: Cc1ccc(O)c(NC(=O)COc2ccc(Cl)cc2)c1 [CBK268670]
no

Given the entry Cc1c(C(=O)NC(=S)Nc2ccc(O)c(-c3nc4ccccc4s3)c2)oc2ccccc12 [CBK264223] , would its reported viability at 28.5 h, 10 µM be below 90%?
no

A record lists Nc1nc(C2CC(O)C2)cc(N2CCC(Oc3ccccc3Cl)CC2)n1 (stereo not shown) [CBK307392] . Is its viability at 28.5 h, 10 µM below 90%?
no

Input Cn1c(SCc2cc(-c3ccc(Cl)cc3)no2)nnc1-c1ccco1 [CBK295193] ; condition: viability at 28.5 h, 10 µM strictly below 90%. Does it hold?
yes

###

protocolDetails: in vitro
runParameters: human, hela cells, % viability
viability at 28.5 h, 10 µM listing for selected molecules.
Kindly provide the numeric value in % only, without the unit symbol.

Example cases with answers are listed next.
molecule: Cc1ccc(-n2c(SCC(=O)N3CCC(C(=O)O)CC3)nc3ccccc3c2=O)cc1C
assayResult: 81.4

molecule: Cc1nn(CC(C)C)c(C)c1CCC(=O)N(C)Cc1c(C)nn(-c2ccccc2)c1C
assayResult: 108

molecule: CC(C)(C)c1ccc(-c2cnc(N)c(-c3ccc(C(=O)N4CCOCC4)cc3)n2)cc1 [CBK084543A]
assayResult: 98.2

molecule: O=C(c1c[nH]c2ccccc12)C(O)C(c1ccccc1)N1CCCCC1 (stereo not drawn)
assayResult: 94.1

molecule: C[C@H](Nc1cncc(-c2cccc(N(C)C)c2)n1)c1ccccc1
assayResult: 96.8

molecule: CSC(=S)n1c(C)nc2ccccc21
assayResult: 92.3

molecule: CN1CCC(N(C)C2CCN(Cc3ccccc3)CC2)CC1
assayResult: 85.8

molecule: Cc1nc(-c2ccco2)nc2sc(C(=O)NCc3nnc4ccccn34)c(C)c12
assayResult: 107

Entry NS(=O)(=O)c1ccc(C(=O)N2CCC3(CCN(C(=O)c4ccoc4)C3)C2)cc1 (stereo not drawn) needs its viability at 28.5 h, 10 µM filled in; supply it.
95.2

###

protocolDetails: in vitro
runParameters: human, hela cells, % viability
endpointLabel: viability at 28.5 h, 10 µM (%)
Respond with the bare value in %.

Worked cases, viability at 28.5 h, 10 µM given:
molecule: Cc1ccc(N2C(=O)CC(Sc3ncccc3C(=O)O)C2=O)cc1 (centres unmarked)
unitAbbrev: %
viability at 28.5 h, 10 µM: 87.7
--
molecule: CCSc1nc(N)c(NC(=O)c2ccco2)c(=O)[nH]1
unitAbbrev: %
viability at 28.5 h, 10 µM: 92.4
--
molecule: O=C(Cn1cccn1)NC(CN1CCCCC1)c1ccccc1 (centres unmarked)
unitAbbrev: %
viability at 28.5 h, 10 µM: 104

Supply recorded viability at 28.5 h, 10 µM for O=C(Nc1ccc(Br)cc1C(=O)c1ccccc1)c1ccc([N+](=O)[O-])s1 here.
111

Please list viability at 28.5 h, 10 µM recorded for the molecule COc1ccc(NC(=O)C2CCCN2c2nc(O)cc(C(F)(F)F)n2)cc1 (centres unmarked)
77

Please give the documented viability at 28.5 h, 10 µM of CCc1cc(OCc2ccc(Cn3nc(NC(C)=O)c4ccccc43)cc2)c2ccccc2n1
91

Answer with reported viability at 28.5 h, 10 µM of CCCCC12CN3CC(C)(CN(C1)C31C(=O)Nc3ccc(Br)cc31)C2=O (centres unmarked)
96

Could you please provide reported viability at 28.5 h, 10 µM for O=C1Nc2ccc(-c3ccc(Cl)cc3)cc2C(=O)N2CCN(C(=O)CO)C[C@H]12 ? Thanks!
96.1

Give the reported viability at 28.5 h, 10 µM for this molecule. CC(Cc1ccc(N(C)C)cc1)NC(=O)C1CN(S(=O)(=O)c2ccc(F)cc2)C1 (centres unmarked)
114

Note viability at 28.5 h, 10 µM for the molecule shown: CN1CCN(C(=O)CN(Cc2ccc(Cl)cc2)S(=O)(=O)c2ccc(Br)cc2)CC1
113

Give me measured viability at 28.5 h, 10 µM, please, for this molecule: FC(F)(F)Oc1cccc(-c2cn3ccnc3c(NCCc3ccccn3)n2)c1
96.7
